kon by entry:
- Target Under Test: T1, hK1 (human tissue kallikrein 1), recombinant (human, UniProt P06870 25-262)
- T1 construct: Expressed in P. pastoris from KLK1 cDNA and purified; enzymatically active; also called KLK1; Recombinant (Pichia) Kallikrein
- Procedure Summary: SPR
Numbers only; they are read as M⁻¹ s⁻¹.

Answered cases to consult:
M0102-G11 (Fab, V domains shown) VH: EVQLLESGGGLVQPGGSLRLSCAASGFTFSRYMMEWVRQAPGKGLEWVSGISPSGGTTKYADSVKGRFTISRDNSKNTLYLQMNSLRAEDTAVYYCTRGGYNNYYYALDVWGQGTTVTVSS VL: DIQMTQSPDTLSLSPGERATLSCRASESVSSSYFAWYQQKRGQAPRLLIYGASRRVTGIPDRFSGSGSGTDFTLTITRLEPEDFAVYYCQQYGGSPRSFGQGTKVEIKR : 467000
M0139-E12 (Fab, V domains shown) VH: EVQLLESGGGLVQPGGSLRLSCAASGFTFSWYSMNWVRQAPGKGLEWVSSIGPSGGGTKYADSVKGRFTISRDNSKNTLYLQMNSLRAEDTAVYYCASRGQRKQWLPPNGAFDIWGQGTMVTVSS VL: DIQMTQSPSSVSASVGDRVTMTCRASRGISNWLAWYQQKPGKAPELLIHSASTLHAGVPSRFSGSGSGTDFTLTISSLQPGDFATYYCQEGNSFPYTFGQGTNLQIKR : 125000
M0112-C12 (Fab, V domains shown) VH: EVQLLESGGGLVQPGGSLRLSCAASGFTFSRYMMYWVRQAPGKGLEWVSSIYPSGGKTLYADSVKGRFTISRDNSKNTLYLQMNSLRAEDTAVYYCARVGVWYGMDVWGQGTTVTVSS VL: DIQMTQSPGTLSLSPGERATLSCRASQSVSSSYLAWYQQKPGQAPRLLIYGASSRATGIPDRFSGSGSGTEFTLTISSLQSEDSAVYYCQQYNNWPPLTFGGGTKVEIKR : 290000
M0102-H02 (Fab, V domains shown) VH: EVQLLESGGGLVQPGGSLRLSCAASGFTFSMYRMFWVRQAPGKGLEWVSVIGPSGGQTAYADSVKGRFTISRDNSKNTLYLQMNSLRAEDTAVYYCARVGVWYGMDVWGQGTTVTVSS VL: DIQMTQSPATLSLSPGERAALSCRASQSVSNFLAWYQQKPGQAPRLLIYGASNRATDIPARFSGSGSGTDFTLTISSLEPEDFATYYCQQANSFPLTFGGGTKVEIKR : 340000

Specify measured kon for M0136-E10 (Fab, V domains shown) VH: EVQLLESGGGLVQPGGSLRLSCAASGFTFSPYNMAWVRQAPGKGLEWVSSIWPSGGRTRYADSVKGRFTISRDNSKNTLYLQMNSLRAEDTAVYYCAKGVRSSGLLERGRVYDAFDIWGQGTMVTVSS VL: DIQMTQSPGTLSLSPGERATLSCRASQSVTTFLAWYQRKPGQAPRLLIYGASSRAADIPDRFSGSGSGTDFTLTISRLEPEDLAVYYCQQYRFSPPTFGPGTTVDIRR . 110000
